Here's a batch of molecules along with measured AC50 for Adenosine receptor A3 (Homo sapiens).
valueType: AC50

>>> measured("O=C1c2ccccc2C(=O)C1c1ccccc1 [PHENINDIONE]")
"> 10 µM"
>>> measured("COc1ccc([C@@H]2CC(=O)c3c(O)cc(O)cc3O2)cc1O [HESPERETIN]")
"> 10 µM"
>>> measured("CCCc1cc(=O)[nH]c(=S)[nH]1 [PROPYLTHIOURACIL]")
"> 10 µM"
>>> measured("COc1cc(C(=O)NC2CCCNC2)cc(OC)c1OC (centres undefined) [TROXIPIDE]")
"> 30 µM"
>>> measured("COc1cc2[nH]c(C)c(CCN3CCN(c4ccccc4)CC3)c2cc1OC [OXYPERTINE]")
"20 µM"
>>> measured("NNC(=O)c1ccncc1 [ISONIAZID]")
"32.7 µM"
>>> measured("CC(CN(C)C)C(C)(O)Cc1ccc(Cl)cc1 (centres undefined) [CLOBUTINOL]")
"> 30 µM"
>>> measured("O=C1c2cccc3c2[C@H](CCC3)CN1[C@@H]1CN2CCC1CC2 [PALONOSETRON]")
"> 30 µM"
>>> measured("C=CC[N+]1([C@H]2C[C@H]3[C@@H]4CC[C@H]5C[C@H](O)[C@@H](N6CCOCC6)C[C@]5(C)[C@H]4CC[C@]3(C)[C@H]2OC(C)=O)CCCC1 [ROCURONIUM]")
"> 30 µM"

====

Target: Vasopressin V1a receptor (Homo sapiens, UniProt P37288); note: assay procedure not described here
Sequence (P37288 whole entry): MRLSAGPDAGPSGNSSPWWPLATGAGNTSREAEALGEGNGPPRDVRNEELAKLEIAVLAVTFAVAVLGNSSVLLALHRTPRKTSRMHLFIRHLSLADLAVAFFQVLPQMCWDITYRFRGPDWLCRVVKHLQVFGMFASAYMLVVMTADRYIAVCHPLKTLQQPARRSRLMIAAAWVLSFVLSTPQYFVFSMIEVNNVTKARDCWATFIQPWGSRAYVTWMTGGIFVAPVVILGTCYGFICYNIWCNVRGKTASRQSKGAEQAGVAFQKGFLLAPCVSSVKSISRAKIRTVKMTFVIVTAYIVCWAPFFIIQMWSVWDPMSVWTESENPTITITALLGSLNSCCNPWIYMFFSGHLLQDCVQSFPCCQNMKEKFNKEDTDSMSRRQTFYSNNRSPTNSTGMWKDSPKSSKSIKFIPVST
valueType: AC50

>>> measured("C[N+]12CCC(CC1)C(OC(=O)C(O)(c1ccccc1)c1ccccc1)C2 (stereo not given)")
"> 30 µM"
>>> measured("CN(Cc1cnc2nc(N)nc(N)c2n1)c1ccc(C(=O)N[C@@H](CCC(=O)O)C(=O)O)cc1 [METHOTREXATE]")
"> 30 µM"
>>> measured("CCc1nc(N)nc(N)c1-c1ccc(Cl)cc1")
"> 10 µM"
>>> measured("OC[C@H]1O[C@@H](n2cnc3c2NC=NC[C@H]3O)C[C@@H]1O")
"> 30 µM"
>>> measured("Cn1cc(C(=O)[C@@H]2CCc3nc[nH]c3C2)c2ccccc21")
"> 30 µM"

====

Target: UniProt:P28223
Sequence (P28223 whole entry): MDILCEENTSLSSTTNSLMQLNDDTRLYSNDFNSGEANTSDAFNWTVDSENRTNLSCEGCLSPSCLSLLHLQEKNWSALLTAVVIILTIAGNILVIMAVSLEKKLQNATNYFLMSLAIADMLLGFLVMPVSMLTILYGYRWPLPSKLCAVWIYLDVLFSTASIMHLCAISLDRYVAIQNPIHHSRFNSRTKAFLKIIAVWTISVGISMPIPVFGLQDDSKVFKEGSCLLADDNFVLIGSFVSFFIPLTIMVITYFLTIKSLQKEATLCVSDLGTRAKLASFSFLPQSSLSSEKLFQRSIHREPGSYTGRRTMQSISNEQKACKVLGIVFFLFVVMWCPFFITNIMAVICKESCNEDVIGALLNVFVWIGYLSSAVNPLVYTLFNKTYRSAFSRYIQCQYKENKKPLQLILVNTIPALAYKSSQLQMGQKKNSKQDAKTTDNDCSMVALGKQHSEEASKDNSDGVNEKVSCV
Type: functional, cell-based
Form field: AC50 (one value per entry).
valueType: AC50

>>> measured("C[N+]1(C)CCC(=C(c2ccccc2)c2ccccc2)CC1")
"> 10 µM"
>>> measured("CC1=C(/C=C/C(C)=C/C=C/C(C)=C/CO)C(C)(C)CCC1")
"> 10 µM"
>>> measured("C=CC[N+]1([C@H]2C[C@H]3[C@@H]4CC[C@H]5C[C@H](O)[C@@H](N6CCOCC6)C[C@]5(C)[C@H]4CC[C@]3(C)[C@H]2OC(C)=O)CCCC1")
"> 30 µM"
>>> measured("Cc1cccc(C)c1NC(=O)CC12CCCN1CCC2 [PILSICAINIDE]")
"> 30 µM"

====

Molecular target: Prostaglandin G/H synthase 1 (Rattus norvegicus); note: assay procedure not described here
Sequence (Q63921 whole entry): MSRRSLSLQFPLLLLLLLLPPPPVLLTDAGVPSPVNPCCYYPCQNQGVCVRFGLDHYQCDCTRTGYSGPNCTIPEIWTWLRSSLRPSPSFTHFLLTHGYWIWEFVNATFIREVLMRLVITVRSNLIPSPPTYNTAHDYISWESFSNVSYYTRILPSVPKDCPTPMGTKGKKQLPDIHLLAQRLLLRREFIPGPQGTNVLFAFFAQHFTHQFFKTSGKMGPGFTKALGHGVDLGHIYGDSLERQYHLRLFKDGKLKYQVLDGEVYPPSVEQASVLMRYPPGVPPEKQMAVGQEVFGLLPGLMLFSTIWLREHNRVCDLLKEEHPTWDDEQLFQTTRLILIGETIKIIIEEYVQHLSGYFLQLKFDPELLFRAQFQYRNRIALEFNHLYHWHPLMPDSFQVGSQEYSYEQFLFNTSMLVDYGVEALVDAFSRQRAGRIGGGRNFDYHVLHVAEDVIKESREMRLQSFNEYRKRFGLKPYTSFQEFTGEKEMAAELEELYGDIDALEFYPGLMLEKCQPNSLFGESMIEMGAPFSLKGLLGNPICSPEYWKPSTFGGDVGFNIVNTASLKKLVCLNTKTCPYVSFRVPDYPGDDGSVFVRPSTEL
Format: functional
valueType: AC50

>>> measured("O=c1c(O)c(-c2ccc(O)c(O)c2)oc2cc(O)cc(O)c12")
"> 30 µM"
>>> measured("O=C(NCCO[N+](=O)[O-])c1cccnc1")
"> 30 µM"
>>> measured("C[N+](C)(C)CCOP(=O)([O-])OC[C@H](O)CO")
"> 30 µM"
>>> measured("O=S1(=O)CCN(CN2CCS(=O)(=O)NC2)CN1")
"> 30 µM"
>>> measured("CC[C@@H](CO)NC(=O)[C@@H]1C=C2c3cccc4c3c(cn4C)C[C@H]2N(C)C1 [METHYSERGIDE]")
"> 30 µM"
>>> measured("C[C@]12CCC(=O)C[C@@H]1CC[C@@H]1[C@@H]2CC[C@]2(C)[C@@H](O)CC[C@@H]12")
"> 30 µM"
>>> measured("CCOC(=O)[C@@H](N)Cc1ccc(-c2cc(O[C@H](c3ccc(Cl)cc3-n3ccc(C)n3)C(F)(F)F)nc(N)n2)cc1")
"> 30 µM"
>>> measured("COc1ccc2cc(CCC(C)=O)ccc2c1")
"> 10 µM"
>>> measured("Cc1nc(Nc2ncc(C(=O)Nc3c(C)cccc3Cl)s2)cc(N2CCN(CCO)CC2)n1")
"> 30 µM"
>>> measured("c1ccc(C2(N3CCCCC3)CCCCC2)cc1")
"> 30 µM"
>>> measured("CCCCCCCN(CC)CCCC(O)c1ccc(NS(C)(=O)=O)cc1 (centres undefined) [IBUTILIDE]")
"> 30 µM"
>>> measured("CC(c1cc2ccccc2s1)N(O)C(N)=O (centres undefined)")
"> 30 µM"
>>> measured("Cn1cc(C(=O)[C@@H]2CCc3nc[nH]c3C2)c2ccccc21")
"> 30 µM"
>>> measured("C[N+]12CCC(CC1)C(OC(=O)C(O)(c1ccccc1)c1ccccc1)C2 (centres undefined)")
"> 30 µM"
>>> measured("NC(=O)NC(=O)Cc1ccccc1 [PHENACEMIDE]")
"> 10 µM"
>>> measured("CC(C)NC[C@H](O)COc1ccc(CC(N)=O)cc1")
"> 30 µM"
>>> measured("O=C1c2ccccc2C(=O)C1c1ccccc1")
"> 10 µM"
>>> measured("COC(=O)C1=C(C)NC(C)=C(C(=O)OCCN2CCN(C(c3ccccc3)c3ccccc3)CC2)C1c1cccc([N+](=O)[O-])c1 (centres undefined)")
"7.4 µM"
>>> measured("CC(C)N(CCCCOCC(=O)O)c1cnc(-c2ccccc2)c(-c2ccccc2)n1")
"> 30 µM"

====

Biological target: Alpha-2B adrenergic receptor (Homo sapiens); note: assay procedure not described here
Sequence (P18089 whole entry): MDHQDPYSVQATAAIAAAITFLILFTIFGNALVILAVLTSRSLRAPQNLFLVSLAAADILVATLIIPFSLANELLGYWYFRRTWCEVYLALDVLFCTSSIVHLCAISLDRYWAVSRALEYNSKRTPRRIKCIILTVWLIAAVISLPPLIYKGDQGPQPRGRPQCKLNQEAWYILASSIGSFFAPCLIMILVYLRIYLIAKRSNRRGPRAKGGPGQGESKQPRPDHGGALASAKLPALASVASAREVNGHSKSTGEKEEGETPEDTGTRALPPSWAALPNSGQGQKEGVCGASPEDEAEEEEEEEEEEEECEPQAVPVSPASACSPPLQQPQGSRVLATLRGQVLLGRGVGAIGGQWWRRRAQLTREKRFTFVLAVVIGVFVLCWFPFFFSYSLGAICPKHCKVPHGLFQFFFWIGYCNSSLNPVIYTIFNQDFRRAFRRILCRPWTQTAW
Form field: AC50 (one value per entry).
valueType: AC50

>>> measured("CC1=C(C(=O)OC(C)C)C(c2cccc([N+](=O)[O-])c2)C(C(=O)OC2CN(C(c3ccccc3)c3ccccc3)C2)=C(N)N1 (stereo not given)")
"> 30 µM"
>>> measured("CO[C@H]1C[C@H](O[C@H]2CC[C@@]3(C)[C@H](CC[C@@H]4[C@@H]3CC[C@]3(C)[C@@H](C5=CC(=O)OC5)[C@@H](OC(C)=O)C[C@]43O)C2)O[C@@H](C)[C@@H]1O")
"> 30 µM"
>>> measured("CC1=C(/C=C/C(C)=C/C=C/C(C)=C/CO)C(C)(C)CCC1")
"> 30 µM"
>>> measured("COc1cc(C)c(/C=C/C(C)=C/C=C/C(C)=C/C(=O)O)c(C)c1C")
"> 10 µM"
>>> measured("O=C1c2cccc3c2[C@H](CCC3)CN1[C@@H]1CN2CCC1CC2")
"> 30 µM"
>>> measured("CCCN1CC(NS(=O)(=O)N(CC)CC)CC2Cc3c(O)cccc3CC21 (stereo not given) [QUINAGOLIDE]")
"11 µM"
>>> measured("COc1cc2[nH]c(C)c(CCN3CCN(c4ccccc4)CC3)c2cc1OC")
"0.25 µM"
>>> measured("C=C1c2cccc(O)c2C(=O)C2=C(O)[C@]3(O)C(=O)C(C(N)=O)=C(O)[C@@H](N(C)C)[C@@H]3[C@@H](O)[C@H]12")
"> 10 µM"
>>> measured("Cc1cccc(C)c1NC(=O)CC12CCCN1CCC2 [PILSICAINIDE]")
"> 30 µM"
>>> measured("CCc1nc(N)nc(N)c1-c1ccc(Cl)cc1")
"> 10 µM"

====

Molecular target: Sodium-dependent dopamine transporter (Homo sapiens); note: assay procedure not described here
Sequence (Q01959 whole entry): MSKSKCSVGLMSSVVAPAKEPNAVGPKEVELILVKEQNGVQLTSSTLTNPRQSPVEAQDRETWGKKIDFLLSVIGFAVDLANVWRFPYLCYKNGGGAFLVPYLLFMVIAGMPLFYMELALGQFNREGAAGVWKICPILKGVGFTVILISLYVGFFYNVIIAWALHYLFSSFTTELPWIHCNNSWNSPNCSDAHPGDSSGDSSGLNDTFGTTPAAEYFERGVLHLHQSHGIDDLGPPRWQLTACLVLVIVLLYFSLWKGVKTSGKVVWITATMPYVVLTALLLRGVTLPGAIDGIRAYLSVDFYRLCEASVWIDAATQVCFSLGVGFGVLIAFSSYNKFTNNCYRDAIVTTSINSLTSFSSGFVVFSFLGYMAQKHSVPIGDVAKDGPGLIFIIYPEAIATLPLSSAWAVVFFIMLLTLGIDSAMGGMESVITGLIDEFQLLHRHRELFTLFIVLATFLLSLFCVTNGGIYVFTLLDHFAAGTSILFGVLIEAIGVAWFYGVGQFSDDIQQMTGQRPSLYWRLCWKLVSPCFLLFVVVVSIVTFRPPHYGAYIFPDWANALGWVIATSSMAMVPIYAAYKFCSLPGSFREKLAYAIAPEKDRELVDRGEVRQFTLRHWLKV
valueType: AC50

>>> measured("CC(O)(CS(=O)(=O)c1ccc(F)cc1)C(=O)Nc1ccc(C#N)c(C(F)(F)F)c1 (centres undefined) [BICALUTAMIDE]")
"> 30 µM"
>>> measured("CC(C)C[C@H](NC(=O)[C@@H](O)[C@H](N)Cc1ccccc1)C(=O)O [UBENIMEX]")
"> 30 µM"
>>> measured("O=C(O)P(=O)(O)O [FOSCARNET]")
"> 30 µM"
>>> measured("CC(C)C(=O)Oc1ccc(CO)cc1[C@H](CCN(C(C)C)C(C)C)c1ccccc1 [FESOTERODINE]")
"> 30 µM"
>>> measured("CC(C)(C)NC(=O)N[C@H](C(=O)N1C[C@H]2[C@@H]([C@H]1C(=O)NC(CC1CCC1)C(=O)C(N)=O)C2(C)C)C(C)(C)C (some centres undefined) [BOCEPREVIR]")
"> 30 µM"
>>> measured("C[C@H](N[C@@H](CCc1ccccc1)C(=O)O)C(=O)N1Cc2ccccc2C[C@H]1C(=O)O")
"> 30 µM"
>>> measured("COc1ccc(OC)c(C(O)C(C)N)c1 (centres undefined) [METHOXAMINE]")
"> 30 µM"
>>> measured("C[N+](C)(C)CCOC(=O)CCC(=O)OCC[N+](C)(C)C [SUXAMETHONIUM]")
"> 30 µM"
>>> measured("NC(=O)[C@@H]1CC[C@@H]2CN1C(=O)N2OS(=O)(=O)O [AVIBACTAM]")
"> 30 µM"

# credit: ChEMBL document CHEMBL5291721
